// data source = the supplement of paper PMC11061612

Tested on: Hs-766T (Pancreatic Carcinoma);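 note: after 72 h of two-drug dosing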
Assay: Bliss excess, mean over the matrix (fraction); higher = more synergy
measured.property: Bliss excess
Enter a number only.

Fill in Bliss excess for record Cc1c2c(nn1C)CSCc1cc(n(C)n1)CSc1cc(c3ccccc3c1)OCCCc1c(C(=O)O)n(C)c3c-2c(Cl)ccc13 [AZD5991] + Nc1ccn([C@@H]2O[C@H](CO)[C@@H](O)C2(F)F)c(=O)n1 [Gemcitabine] (first compound max 1 µM, 7x7, partner max 0.3 µM)
-0.0234

Fill in Bliss excess for record CN(CCO)CC[C@H](CSc1ccccc1)Nc1ccc(S(=O)(=O)NC(=O)c2ccc(N3CCC([C@@H](O)c4ccccc4-c4ccc(Cl)cc4)CC3)cc2)cc1S(=O)(=O)C(F)(F)F [AZD4320] + C[C@@H](Nc1cc(F)cc(F)c1)c1cc(C(=O)N(C)C)cc2c(=O)cc(N3CCOCC3)oc12 [AZD8186] (first compound max 1 µM, 7x7, partner max 3 µM)
0.0113
